Here, each record is paired with measured minimal effective concentration data.
System: Dirofilaria immitis L1 larvae
Assay: Screening against microfilaria (L1 larvae) of Dirofilaria immitis, survival/motility
Assay type: in vivo
Conditions: 72 h, read-out: Ranked D. immitis L1 MED Activity
Text: Example 44. Screening of Compounds Against Microfilaria of Dirofilaria immitis To evaluate the efficacy of compounds of the disclosure against Dirofilaria immitis, L1 stage larvae were exposed to various concentrations of the compounds to determine survival or paralysis of the larvae. Results are reported as the minimum effective dose (MED), defined as the concentration required to eliminate motility. […]

stdin: State the measured minimal effective concentration (Dirofilaria immitis L1 larvae) of CN(CC1CN(S(C)(=O)=O)CCS1)c1cc(N2CCSC3(CCCCC3)C2)nc(C(F)(F)F)n1 (stereo not shown) [Compound 30]
stdout: < 10000 µM

stdin: Provide the reported minimal effective concentration (system: Dirofilaria immitis L1 larvae) for CS(=O)(=O)N1CCOC2CN(c3cc(N4CCOC5(CCCCC5)C4)nc(C(F)(F)F)n3)CCC21 (stereo not shown) [Compound 34]
stdout: < 30000 µM

stdin: Given CN(Cc1ccc(S(=O)(=O)N(C)C)cc1)c1cc(N2CCCC3(CCCCC3)C2)nc(C(F)(F)F)n1 [Compound 5] , report its minimal effective concentration on Dirofilaria immitis L1 larvae.
stdout: > 100000 µM

stdin: Give minimal effective concentration only, for CN(C)CCN(CC1CN(S(C)(=O)=O)CCO1)c1cc(N2CCCC3(CCCCC3)C2)nc(C(F)(F)F)n1 (stereo not shown) [Compound 39] , using Dirofilaria immitis L1 larvae data.
stdout: < 10000 µM

stdin: Give Dirofilaria immitis L1 larvae minimal effective concentration for the following compound: CN(CCC1CN(S(C)(=O)=O)CCO1)c1cc(N2CCCC3(CCCCC3)C2)nc(C(F)(F)F)n1 (stereo not shown) [Compound 44]
stdout: > 100000 µM

stdin: Print Dirofilaria immitis L1 larvae minimal effective concentration for CN(CC1CN(S(C)(=O)=O)CCCO1)c1cc(N2CCOC3(CCCCC3)C2)nc(C(F)(F)F)n1 (stereo not shown) [Compound 31] .
stdout: < 30000 µM

stdin: Report value only: minimal effective concentration, Dirofilaria immitis L1 larvae, CS(=O)(=O)N1CCOC(CN(Cc2ccccc2)c2cc(N3CCOC4(CCCCC4)C3)nc(C(F)(F)F)n2)C1 (stereo not shown) [Compound 19]
stdout: > 100000 µM

====

minimal effective concentration reference
system: Dirofilaria immitis L1 larvae; assay: Screening against microfilaria (L1 larvae) of Dirofilaria immitis, survival/motility; format: in vivo; settings: 72 h, read-out: Ranked D. immitis L1 MED Activity

Study these solved cases before continuing.
CN(CC1CN(S(=O)(=O)C2CC2)CCO1)c1cc(N2CCOC3(CCCCC3)C2)nc(C(F)(F)F)n1 (stereo not drawn) | < 10000 µM
CN(CC1CN(S(C)(=O)=O)CCO1)c1cc(N2CCOC3(CCC(F)(F)CC3)C2)nc(C(F)(F)F)n1 (stereo not drawn) | < 10000 µM
CN(CC1CN(S(C)(=O)=O)CCCO1)c1cc(N2CCCC3(CCCCC3)C2)nc(C(F)(F)F)n1 (stereo not drawn) | < 10000 µM
CN(CC1CN(S(C)(=O)=O)CCO1)c1cc(N2CCOC3(CCCC3)C2)nc(C(F)(F)F)n1 (stereo not drawn) | < 30000 µM
CN(CC1CN(S(C)(=O)=O)CCS1)c1cc(N2CCCC3(CCCCC3)C2)nc(C(F)(F)F)n1 (stereo not drawn) | > 100000 µM

stdin: Retrieve minimal effective concentration on Dirofilaria immitis L1 larvae; query CN(CC1CCN(S(C)(=O)=O)C1)c1cc(N2CCCC3(CCCCC3)C2)nc(C(F)(F)F)n1 (stereo not drawn)
stdout: < 30000 µM

stdin: Write minimal effective concentration of CN(CC1CN(S(C)(=O)=O)CCS1(=O)=O)c1cc(N2CCCC3(CCCCC3)C2)nc(C(F)(F)F)n1 (stereo not drawn) ; system used: Dirofilaria immitis L1 larvae
stdout: > 100000 µM

stdin: Recall the reported minimal effective concentration of `CS(=O)(=O)N1CC2(CC(Nc3cc(N4CCCC5(CCCCC5)C4)nc(C(F)(F)F)n3)C2)C1` on Dirofilaria immitis L1 larvae and write it down.
stdout: > 100000 µM
